Reported TGI values for the following compounds.
Test system: COLO 205 colon
Assay: NCI tumour cell line growth inhibition, 48 h

Here is how some compounds turned out for TGI.
[
  {
    "smiles code": "CS(=O)(=O)c1ccc(N/N=C/c2c(-c3ccc(S(C)(=O)=O)cc3)[nH]c3ccc(F)cc23)cc1",
    "recorded metric": "TGI",
    "observed result": "> 50 µM"
  },
  {
    "smiles code": "COc1ccc(C)c2c1N[C@](C)([C@]1(C)Nc3c(OC)ccc(C)c3C1=O)C2=O",
    "recorded metric": "TGI",
    "observed result": "> 100 µM"
  }
]

// query Which value of TGI has been reported for `COC(=O)C1([C@@H]2C[C@@H](O)[C@]3(C)CC/C=C(\C)CCC[C@H](C)[C@H](O)[C@@H]2O3)CC1` in the records?
// result > 100 µM
